TARGET_ENTITY: Ac-VQIINK-NH2 (SEQ ID NO: 23) (N-terminal acetyl (Ac); C-terminal amide (NH2))
ASSAY_INFO: cell-based or functional assay
Square brackets hold non-standard residues; d marks the D form. Ends that are not written are not given here.
ATTRIBUTE_MEASURED: VQIINK Inhibition IC50 (µm)
Response body: numeric value in µm, unit text excluded.

Consider the reported VQIINK Inhibition IC50 for these binders:
> print(dat)
                                     binder      attribute.measured  assay.value
1    [dF][dR][dI][dK][dI][dR][dW] [frikirw]  VQIINK Inhibition IC50         1.47
2  [dW][dK][dV][dK][dI][dQ][dY][dH] [wkvkiqyh]  VQIINK Inhibition IC50         0.75
3    [dW][dR][dL][dW][dI][dH][dW] [wrlwihw]  VQIINK Inhibition IC50         1.73
4    [dW][dR][dF][dK][dF][dR][dW] [wrfkfrw]  VQIINK Inhibition IC50         1.95
5  [dW][dK][dL][dW][dL][dR][dW] (not fully specified; printed as wklwlrw) [wklwlrw]  VQIINK Inhibition IC50         1.95

Answer with reported VQIINK Inhibition IC50 of [dF][dE][dI][dR][dL][dH][dH][dW] [feirlhhw]
1.78

Answer with reported VQIINK Inhibition IC50 of [dF][dK][dI][dK][dI][dK][dW] (not fully specified; printed as fkikikw) [fkikikw]
2.35

Answer with reported VQIINK Inhibition IC50 of [dW][dR][dL][dK][dV][dR][dW][dR] [wrlkvrwr]
1.7

Answer with reported VQIINK Inhibition IC50 of [dL][dK][dA][dR][dI][dH][dY][dH] [lkarihyh]
10

Answer with reported VQIINK Inhibition IC50 of [dW][dR][dI][dW][dI][dR][dY][dW] [wriwiryw]
1.2

Answer with reported VQIINK Inhibition IC50 of [dL][dA][dI][dR][dI][dH][dY][dH] [lairihyh]
1.98

Answer with reported VQIINK Inhibition IC50 of [dW][dK][dL][dK][dL][dW][dW][dW] [wklklwww]
1.44

Answer with reported VQIINK Inhibition IC50 of [dW][dW][dL][dR][dI][dH][dW][dW] [wwlrihww]
1.83

Answer with reported VQIINK Inhibition IC50 of [dL][dR][dL][dK][dV][dR][dW][dL] [lrlkvrwl]
0.93

Answer with reported VQIINK Inhibition IC50 of [dR][dI][dK][dI][dR][dW] [rikirw]
10.8

Answer with reported VQIINK Inhibition IC50 of [dL][dK][dI][dR][dI][dW][dY][dH] [lkiriwyh]
1.89

Answer with reported VQIINK Inhibition IC50 of [dL][dK][dI][dR][dI][dH][dA][dH] [lkirihah]
5.54

Answer with reported VQIINK Inhibition IC50 of [dF][dR][dL][dR][dI][dH][dW][dF] [frlrihwf]
1.81

Answer with reported VQIINK Inhibition IC50 of [dW][dR][dL][dR][dI][dH][dE] [wrlrihe]
14.5

Answer with reported VQIINK Inhibition IC50 of [dL][dK][dI][dH][dI][dR][dH][dW] [lkihirhw]
2.38

Answer with reported VQIINK Inhibition IC50 of [dL][dK][dI][dR][dI][dE][dY][dH] [lkirieyh]
7.95

Answer with reported VQIINK Inhibition IC50 of [dV][dK][dV][dW]G[dR][dL][dW] (not fully specified (residue 5); printed as vkvwgrlw) [vkvwgrlw]
4.51

Measured values drawn from patent US20200216495A1 for this set.
